experimental.details: amyloid nucleation score (Sup35N fusion, yeast selection) (log enrichment); library NNK3; higher = more nucleation; inactive = no reads after selection;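 also: zero at mode of non-aggregating sequences after 7 days selection at 30°C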
property.label: amyloid nucleation score

QRNSCLDFMK; inactive
HVFPVIAPYRLMLNLKWFVY; inactive
SFIIVILYGDHALYFTYEAV; inactive
NENPDNYLRIAVWTTFFSFC; 1.57

Field request: amyloid nucleation score | item: `GEIRSKTTVLP`
inactive

Field request: amyloid nucleation score | item: `CNRVPVFFMFYVEQGVLRWN`
2.13

Field request: amyloid nucleation score | item: `FRMASS`
inactive

---

experimental.details: amyloid nucleation score (Sup35N fusion, yeast selection) (log enrichment); library NNK3; higher = more nucleation; inactive = no reads after selection
property.label: amyloid nucleation score

The examples below pair each entry with its known result.
HDSQMWYLSIIESYLVQYLM; inactive
RHLPQESKRSSVAAISLM; inactive
MVFMADK; 0.268
KFGWWLFDSVSDTNLWYRRS; inactive
KLICKERYVVYSVILVLKEL; inactive
MINWYGRTNPLCDPGLLRGI; inactive
PQRWLSPSYSRIVRM; 1.39
YLDKRYVVGVFMLDSNLDLS; inactive

Field request: amyloid nucleation score | item: `FISLVPLLSLYRPWVKK`
0.836

Field request: amyloid nucleation score | item: `YFFCCLR`
2.44

Field request: amyloid nucleation score | item: `LSLLFALLAFEGVRASLSWG`
inactive

Field request: amyloid nucleation score | item: `YMCKCSYVEMTHSA`
inactive

Field request: amyloid nucleation score | item: `HYLAIYGVGCCNFYSYTAVC`
1.28

---

experimental.details: amyloid nucleation score (Sup35N fusion, yeast selection) (log enrichment); library NNK3; higher = more nucleation; inactive = no reads after selection
property.label: amyloid nucleation score

The examples below pair each entry with its known result.
VGLALRLCLAVLSDRKWILS; inactive
FRHPIYCLDLSFSYRMKARG; 0.052
RVGAVMVEGRFLYHA; 0.522
SRMPCRFM; inactive
LLLSFYLNGILVIHML; inactive

Field request: amyloid nucleation score | item: `NRTSLCKEDLVRVSFDGYLL`
inactive

Field request: amyloid nucleation score | item: `MDEVWFPSKGCDLAVRNCLM`
inactive

Field request: amyloid nucleation score | item: `SSACISCYVSMLWYDVLFKV`
0.345

Field request: amyloid nucleation score | item: `RIPKTKRYHPCYVRLRRSVY`
inactive

Field request: amyloid nucleation score | item: `DPLILPIVVDRIVADDCYCQ`
inactive

Field request: amyloid nucleation score | item: `CGSVSSI`
inactive

Field request: amyloid nucleation score | item: `GVNCLSLGSKIICGSTGWFL`
2.47

Field request: amyloid nucleation score | item: `SIDNLSPRPTWSGIMFSHCL`
inactive

Field request: amyloid nucleation score | item: `SCGACLKEGRSG`
inactive

Field request: amyloid nucleation score | item: `TYYNHIRLVYLIGAKRWEEL`
inactive

Field request: amyloid nucleation score | item: `VKIYLSPTWEHIDRVYNCAL`
1.59

Field request: amyloid nucleation score | item: `WQTTDRLFSVKKSALLVGFC`
inactive

Field request: amyloid nucleation score | item: `YSRSGISFFTGRHKLFSMYG`
inactive

Field request: amyloid nucleation score | item: `MVVGCCSEGV`
inactive

Field request: amyloid nucleation score | item: `FNLFRNLIMGNCSALMMDQP`
inactive

Field request: amyloid nucleation score | item: `NYKRTLEESN`
1.17

Field request: amyloid nucleation score | item: `TFLYFNVLRIHFVASS`
inactive
